# Test system: RAW 264.7 cells
# Method: Cell viability (SRB) of RAW 264.7 cells in the NO assay
# Format: cell-based
# Test Settings: 50 µM
Measure Name: NO % cell survival (%)
Field format: number, assumed %, no unit text.

Please review the entries below; each comes with its answer.
1) CC1=C(Cn2c3cccc(=O)c-3nc3ccccc32)CCC(C)(C)C1; 58.3
2) CC1=C(Cn2c3ccc(Br)c(=O)c-3nc3ccccc32)CCC(C)(C)C1; 68.9
3) CC(C)=CCn1c2ccc(Br)c(=O)c-2nc2ccccc21; 56.0

--- query ---
Prompt line: Reported NO % cell survival for Oc1ccc(/C=C/c2cc(O)cc(O)c2)cc1 [Resveratrol, resveratrol, reference compound] : what is it?
Response line: 86.9

###

Measured pIC50, listed per entry for reference.
# System: PGE2 production in LPS-induced RAW 264.7 cells
# Method: LPS-induced PGE2 production in RAW 264.7 cells (ELISA)
# Format: cell-based
# Test Settings: Mus musculus, RAW264.7, LPS-induced RAW 264.7 cells; read-out: PGE2 IC50
// scale note: pIC50 = -log10(conc_M); give the bare number

Answered examples (2):
1. CC(C)=CCn1c2ccc(Br)c(=O)c-2nc2ccccc21 [Phenazine 2]; 6.05
2. CC1=C(Cn2c3ccc(Br)c(=O)c-3nc3ccccc32)CCC(C)(C)C1 [Phenazine 1]; 5.12

We now examine a further molecule.
Prompt line: May I ask what pIC50 has been recorded for CC1=C(Cn2c3cccc(=O)c-3nc3ccccc32)CCC(C)(C)C1 [Lavanducyanin 3, lavanducyanin] ?
Response line: 6.20

###

For reference, pIC50 measured on human COX-2 (Homo sapiens):
Scale for pIC50: -log10 of concentration given in mol/L; no unit attached.

Some solved cases for reference:
1. CC1=C(Cn2c3cccc(=O)c-3nc3ccccc32)CCC(C)(C)C1; 4.47
2. CC(C)=CCn1c2ccc(Br)c(=O)c-2nc2ccccc21; 5.14

# input for lookup
Prompt line: I would be grateful if you could share the reported pIC50 for CC1=C(Cn2c3ccc(Br)c(=O)c-3nc3ccccc32)CCC(C)(C)C1 .
Response line: 5.40

###

List of IC50 tested on ovine COX-1 (Ovis aries, UniProt P05979).
Sequence (P05979 25-600): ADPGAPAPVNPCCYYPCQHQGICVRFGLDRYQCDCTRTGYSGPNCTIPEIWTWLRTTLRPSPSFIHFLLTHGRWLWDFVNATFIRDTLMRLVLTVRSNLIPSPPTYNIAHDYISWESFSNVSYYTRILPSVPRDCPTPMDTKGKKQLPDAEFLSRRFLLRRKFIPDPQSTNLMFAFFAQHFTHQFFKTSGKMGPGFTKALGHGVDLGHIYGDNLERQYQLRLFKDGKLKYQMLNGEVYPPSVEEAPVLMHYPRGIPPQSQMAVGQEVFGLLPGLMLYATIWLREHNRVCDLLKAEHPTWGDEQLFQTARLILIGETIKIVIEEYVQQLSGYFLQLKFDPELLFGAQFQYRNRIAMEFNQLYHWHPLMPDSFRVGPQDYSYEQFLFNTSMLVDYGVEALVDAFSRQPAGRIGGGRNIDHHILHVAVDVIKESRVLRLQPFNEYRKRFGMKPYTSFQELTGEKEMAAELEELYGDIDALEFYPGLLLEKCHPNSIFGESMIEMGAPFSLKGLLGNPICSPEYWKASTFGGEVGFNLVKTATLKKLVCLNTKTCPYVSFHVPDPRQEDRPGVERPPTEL
Write down the numeric answer in µM and omit the unit.

Below, 2 compounds whose answers are already recorded.
1. CC1=C(Cn2c3cccc(=O)c-3nc3ccccc32)CCC(C)(C)C1; 30
2. CC(C)=CCn1c2ccc(Br)c(=O)c-2nc2ccccc21; 5.6

Prompt line: Look up IC50 for this compound: CC1=C(Cn2c3ccc(Br)c(=O)c-3nc3ccccc32)CCC(C)(C)C1
Response line: 11

###

# System: PGE2 production in LPS-induced RAW 264.7 cells
# Method: LPS-induced PGE2 production in RAW 264.7 cells (ELISA)
# Type: cell-based
# Test Settings: Mus musculus, RAW264.7, read-out: PGE2 IC50
Measure Name: IC50 (nM)
Quick reminder: number only, in nM, skip the unit.

Prompt line: Please tell me: IC50 of Oc1ccc(/C=C/c2cc(O)cc(O)c2)cc1 [Resveratrol, resveratrol, reference compound] , system PGE2 production in LPS-induced RAW 264.7 cells?
Response line: 2500

Taken from paper PMC3297008.
